# ASSAYED SYSTEM: unphosphorylated c-KIT kinase (uKIT, Seq. ID no. 2) (Homo sapiens, UniProt P10721)
# Construct: uKit with N-terminal GST fusion used for screening
# Sequence (P10721 with tags, fused parts or gaps): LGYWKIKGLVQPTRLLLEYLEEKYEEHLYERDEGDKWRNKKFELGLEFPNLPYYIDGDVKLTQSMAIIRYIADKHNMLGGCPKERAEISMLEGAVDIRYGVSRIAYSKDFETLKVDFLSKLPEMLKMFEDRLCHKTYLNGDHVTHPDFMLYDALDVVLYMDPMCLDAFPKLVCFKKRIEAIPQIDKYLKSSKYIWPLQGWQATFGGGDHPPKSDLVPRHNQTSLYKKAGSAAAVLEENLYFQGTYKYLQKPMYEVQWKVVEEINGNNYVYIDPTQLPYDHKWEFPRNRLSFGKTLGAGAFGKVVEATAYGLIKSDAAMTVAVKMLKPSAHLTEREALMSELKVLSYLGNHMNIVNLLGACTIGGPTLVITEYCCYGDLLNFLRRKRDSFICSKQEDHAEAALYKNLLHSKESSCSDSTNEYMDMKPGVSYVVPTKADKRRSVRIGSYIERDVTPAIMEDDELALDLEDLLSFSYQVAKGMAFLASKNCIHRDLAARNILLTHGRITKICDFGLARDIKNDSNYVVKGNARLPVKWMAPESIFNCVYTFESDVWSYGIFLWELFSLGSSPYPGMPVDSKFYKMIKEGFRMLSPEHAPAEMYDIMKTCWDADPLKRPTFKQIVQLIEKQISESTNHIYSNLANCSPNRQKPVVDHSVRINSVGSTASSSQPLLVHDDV
# MEASUREMENT DESCRIPTION: uKit kinase assay (ADP production coupled to pyruvate kinase/lactate dehydrogenase)
# Format: biochemical
# CONDITION: enzymatic assay, ATP 2000 μM; read-out: uKIT
# Method: In this assay, the oxidation of NADH (thus the decrease at A340 nm) was continuously monitored spectrophometrically. […] The inhibition reaction was started by mixing serial diluted test compound with the above reaction mixture. The absorption at 340 nm was monitored continuously for 4 hours at 30° C. on Synergy 2 plate reader (BioTech).
pIC50: −log10 of the molar value.
READOUT NAME: pIC50

Consider the worked cases shown below.
CHEMICAL SMILES: Cc1nc(-c2cnc(N3CCC(F)(F)C3)[nH]c2=O)ccc1Oc1ccnc(-c2cnn(C)c2)c1
RESULT: < 6.00

CHEMICAL SMILES: CCNc1ncc(-c2ccc(Oc3ccnc(-c4cnn(C)c4)c3)cn2)c(=O)[nH]1
RESULT: 6.00 to 7.00

CHEMICAL SMILES: Cc1nc(-c2cnc(NC3CCCC3)[nH]c2=O)ccc1Oc1ccnc(-c2cnn(C)c2)c1
RESULT: 6.00 to 7.00

CHEMICAL SMILES: COCCNc1ncc(-c2ccc(Oc3ccnc(-c4cnn(C)c4)c3)c(C)n2)c(=O)n1C
RESULT: < 6.00

CHEMICAL SMILES: Cc1cc(-c2cnc(NC(C)C)[nH]c2=O)ncc1Oc1ccnc(-c2cnn(C)c2)c1
RESULT: 7.00 to 8.00

Give its pIC50 value. Item: Cc1nc(-c2cnc(NC(C)C)[nH]c2=O)ccc1Oc1ccnc(-c2cnn(C)c2)c1 6.00 to 7.00

Same question, CCn1cc(-c2cc(Oc3ccc(-c4cnc(NC(C)C)[nH]c4=O)nc3C)ccn2)cn1 this time < 6.00

Same question, Cc1nc(-c2cnc(NC3CCOCC3)[nH]c2=O)ccc1Oc1ccnc(-c2cnn(C)c2)c1 this time < 6.00

----------
# ASSAYED SYSTEM: unphosphorylated c-KIT kinase (uKIT, Seq. ID no. 2) (Homo sapiens)
# Construct: uKit with N-terminal GST fusion used for screening
# MEASUREMENT DESCRIPTION: uKit kinase assay (ADP production coupled to pyruvate kinase/lactate dehydrogenase)
# Format: biochemical
# CONDITION: enzymatic assay, ATP 2000 μM; read-out: uKIT
READOUT NAME: IC50

Consider the worked cases shown below.
CHEMICAL SMILES: Cc1nc(-c2cnc(NC(C)(C)C)[nH]c2=O)ccc1Oc1ccnc(-c2cnn(C)c2)c1
IC50: 10 to 100 nM

CHEMICAL SMILES: Cc1nc(-c2cnc(NCC(C)(C)C)[nH]c2=O)ccc1Oc1ccnc(-c2cnn(C)c2)c1
IC50: 10 to 100 nM

CHEMICAL SMILES: Cc1nc(-c2cnc(N3CC[C@H](N(C)C)C3)[nH]c2=O)ccc1Oc1ccnc(-c2cnn(C)c2)c1
IC50: > 1000 nM

Give its IC50 value. Item: COCCNc1ncc(-c2ccc(Oc3ccnc(-c4cnn(C)c4)c3)c(C)n2)c(=O)[nH]1 100 to 1000 nM

Same question, CCNc1ncc(-c2ccc(Oc3ccnc(-c4cnn(C)c4)c3)c(C)n2)c(=O)[nH]1 this time > 1000 nM

Same question, Cc1nc(-c2cnc(N3CCCCC3)[nH]c2=O)ccc1Oc1ccnc(-c2cnn(C)c2)c1 this time > 1000 nM

Same question, CNC(=O)c1cc(Oc2ccc(-c3cnc(NC(C)C)[nH]c3=O)nc2)ccn1 this time > 1000 nM

Same question, Cc1nc(-c2cnc(NC3CC3)[nH]c2=O)ccc1Oc1ccnc(-c2cnn(C)c2)c1 this time > 1000 nM

----------
# ASSAYED SYSTEM: unphosphorylated c-KIT kinase (uKIT, Seq. ID no. 2) (Homo sapiens)
# Construct: uKit with N-terminal GST fusion used for screening
# MEASUREMENT DESCRIPTION: uKit kinase assay (ADP production coupled to pyruvate kinase/lactate dehydrogenase)
# Assay type: biochemical
pIC50: −log10 of the molar value.
READOUT NAME: pIC50

Give its pIC50 value. Item: Cc1nc(-c2cnc(NC(C)C)n(C)c2=O)ccc1Oc1ccnc(-c2cnn(C)c2)c1 6.00 to 7.00

----------
As shown below, each of these molecules has a reported IC50 value.
# Tested on: osteoclast precursors
# MEASUREMENT DESCRIPTION: Osteoclast tartrate-resistant acid phosphatase assay
# Assay type: cell-based
# CONDITION: tartrate-resistant acid phosphatase activity, RANKL and M-CSF, 7-14 days

MOLECULE: COC[C@H]1CCCN1c1ncc(-c2ccc(Oc3ccnc(-c4cnn(C)c4)c3)c(C)n2)c(=O)[nH]1 [Example 23]
ASSAYED SYSTEM: osteoclast precursors
IC50: 10 to 100 nM

Give its IC50 value. Item: Cc1nc(-c2cnc(NC3CCOCC3)[nH]c2=O)ccc1Oc1ccnc(-c2cnn(C)c2)c1 [Example 27] 10 to 100 nM

Same question, CNc1ncc(-c2ccc(Oc3ccnc(-c4cnn(C)c4)c3)c(C)n2)c(=O)[nH]1 [Example 7] this time 100 to 1000 nM

Same question, Cc1nc(-c2cnc(NC3CC3)n(C)c2=O)ccc1Oc1ccnc(-c2cnn(C)c2)c1 [Example 17] this time < 10 nM

Same question, Cc1nc(-c2cnc(NC3CC3)[nH]c2=O)ccc1Oc1ccnc(-c2cnn(C)c2)c1 [Example 14] this time 10 to 100 nM

Same question, Cc1nc(-c2cnc(N3CCC(F)(F)C3)[nH]c2=O)ccc1Oc1ccnc(-c2cnn(C)c2)c1 [Example 30] this time 10 to 100 nM

----------
# ASSAYED SYSTEM: unphosphorylated c-KIT kinase (uKIT, Seq. ID no. 2) (Homo sapiens, UniProt P10721)
# Construct: uKit with N-terminal GST fusion used for screening
# MEASUREMENT DESCRIPTION: uKit kinase assay (ADP production coupled to pyruvate kinase/lactate dehydrogenase)
# Assay type: biochemical
# CONDITION: enzymatic assay, ATP 2000 μM; read-out: uKIT
READOUT NAME: IC50

CHEMICAL SMILES: COC[C@H]1CCCN1c1ncc(-c2ccc(Oc3ccnc(-c4cnn(C)c4)c3)c(C)n2)c(=O)[nH]1
ASSAYED SYSTEM: unphosphorylated c-KIT kinase (uKIT, Seq. ID no. 2) (Homo sapiens, UniProt P10721)
IC50: > 1000 nM
--
CHEMICAL SMILES: CNc1ncc(-c2ccc(Oc3ccnc(-c4cnn(C)c4)c3)c(C)n2)c(=O)[nH]1
ASSAYED SYSTEM: unphosphorylated c-KIT kinase (uKIT, Seq. ID no. 2) (Homo sapiens, UniProt P10721)
IC50: 100 to 1000 nM
--
CHEMICAL SMILES: CCNc1ncc(-c2ccc(Oc3ccnc(-c4cnn(C)c4)c3)c(C)n2)c(=O)n1C
ASSAYED SYSTEM: unphosphorylated c-KIT kinase (uKIT, Seq. ID no. 2) (Homo sapiens, UniProt P10721)
IC50: 100 to 1000 nM
--
CHEMICAL SMILES: CC(=O)Nc1cc(Oc2ccc(-c3cnc(NC(C)C)[nH]c3=O)nc2C)ccn1
ASSAYED SYSTEM: unphosphorylated c-KIT kinase (uKIT, Seq. ID no. 2) (Homo sapiens, UniProt P10721)
IC50: 100 to 1000 nM
--
CHEMICAL SMILES: Cc1cc(-c2cnc(N3CCCC3)[nH]c2=O)ncc1Oc1ccnc(-c2cnn(C)c2)c1
ASSAYED SYSTEM: unphosphorylated c-KIT kinase (uKIT, Seq. ID no. 2) (Homo sapiens, UniProt P10721)
IC50: 100 to 1000 nM
--
CHEMICAL SMILES: Cc1nc(-c2cnc(NC3CC3)n(C)c2=O)ccc1Oc1ccnc(-c2cnn(C)c2)c1
ASSAYED SYSTEM: unphosphorylated c-KIT kinase (uKIT, Seq. ID no. 2) (Homo sapiens, UniProt P10721)
IC50: > 1000 nM
--
CHEMICAL SMILES: Cc1nc(-c2cnc(N(C)C)[nH]c2=O)ccc1Oc1ccnc(-c2cnn(C)c2)c1
ASSAYED SYSTEM: unphosphorylated c-KIT kinase (uKIT, Seq. ID no. 2) (Homo sapiens, UniProt P10721)
IC50: > 1000 nM

Moving on to the next molecule.
Give its IC50 value. Item: CCNc1ncc(-c2ccc(Oc3ccnc(-c4ccc(C)nc4)c3)c(C)n2)c(=O)[nH]1 > 1000 nM

----------
# System: osteoclast precursors
# MEASUREMENT DESCRIPTION: Osteoclast tartrate-resistant acid phosphatase assay
# Type: cell-based
# CONDITION: tartrate-resistant acid phosphatase activity, RANKL and M-CSF, 7-14 days
pIC50: −log10 of the molar value.
As shown below, each of these compounds has a reported pIC50 value.

CHEMICAL SMILES: CCn1cc(-c2cc(Oc3ccc(-c4cnc(NC(C)C)[nH]c4=O)nc3C)ccn2)cn1
ASSAYED SYSTEM: osteoclast precursors
pIC50: 7.00 to 8.00
//
CHEMICAL SMILES: COC[C@@H](C)Nc1ncc(-c2ccc(Oc3ccnc(-c4cnn(C)c4)c3)c(C)n2)c(=O)[nH]1
ASSAYED SYSTEM: osteoclast precursors
pIC50: > 8.00
//
CHEMICAL SMILES: Cc1nc(-c2cnc(N3CC[C@H](N(C)C)C3)[nH]c2=O)ccc1Oc1ccnc(-c2cnn(C)c2)c1
ASSAYED SYSTEM: osteoclast precursors
pIC50: 6.00 to 7.00
//
CHEMICAL SMILES: Cc1nc(-c2cnc(N3CCOCC3)[nH]c2=O)ccc1Oc1ccnc(-c2cnn(C)c2)c1
ASSAYED SYSTEM: osteoclast precursors
pIC50: 7.00 to 8.00
//
CHEMICAL SMILES: Cc1nc(-c2cnc(NC(C)C)n(C)c2=O)ccc1Oc1ccnc(-c2cnn(C)c2)c1
ASSAYED SYSTEM: osteoclast precursors
pIC50: > 8.00
//
CHEMICAL SMILES: CCNc1ncc(-c2ccc(Oc3ccnc(-c4cnn(C)c4)c3)cn2)c(=O)[nH]1
ASSAYED SYSTEM: osteoclast precursors
pIC50: 6.00 to 7.00
//
CHEMICAL SMILES: Cc1nc(-c2cnc(N3CCCCC3)[nH]c2=O)ccc1Oc1ccnc(-c2cnn(C)c2)c1
ASSAYED SYSTEM: osteoclast precursors
pIC50: 7.00 to 8.00
//
CHEMICAL SMILES: Cc1cc(-c2cnc(NC(C)C)[nH]c2=O)ncc1Oc1ccnc(-c2cnn(C)c2)c1
ASSAYED SYSTEM: osteoclast precursors
pIC50: > 8.00
//
CHEMICAL SMILES: Cc1nc(-c2cnc(NC3CCCC3)[nH]c2=O)ccc1Oc1ccnc(-c2cnn(C)c2)c1
ASSAYED SYSTEM: osteoclast precursors
pIC50: > 8.00
//
CHEMICAL SMILES: Cc1nc(-c2cnc(N(C)C)[nH]c2=O)ccc1Oc1ccnc(-c2cnn(C)c2)c1
ASSAYED SYSTEM: osteoclast precursors
pIC50: 7.00 to 8.00

Give its pIC50 value. Item: Cc1nc(-c2cnc(NC(C)C)[nH]c2=O)ccc1Oc1ccnc(-c2cnn(C)c2)c1 7.00 to 8.00

Same question, CNC(=O)c1cc(Oc2ccc(-c3cnc(NC(C)C)[nH]c3=O)nc2)ccn1 this time 7.00 to 8.00
